- TEST DETAILS: Pharmacokinetic study in rats after single oral administration of GJK (UPLC-MS/MS of plasma)
- Assay type: in vivo, Sprague–Dawley rats
- CONDITION SUMMARY: Sprague-Dawley, in vivo; rat plasma, single oral GJK 24 g/kg, n = 6, mean ± S.D.; read-out: MRT0–t (mean residence time) (converted)
MRT last: recorded values
State the answer as a number, implicitly in h.

>  <MOLECULE>
O=C(/C=C/c1ccc(O)cc1)c1ccc(O)cc1O

>  <VALUE UNITS>
h

>  <MRT last>
7.75

$$$$
>  <MOLECULE>
COCC12CCC(OC)C34C5CC6(O)C(OC)C(O)C(O)(C5C6OC(=O)c5ccccc5)C(C(OC)C13)C4N(C)C2 (stereo not shown)

>  <VALUE UNITS>
h

>  <MRT last>
6.25

$$$$
>  <MOLECULE>
C[C@@]12C[C@@]3(O)O[C@@H](O1)[C@]1(COC(=O)c4ccccc4)[C@H]3C[C@@]12O[C@@H]1O[C@H](CO)[C@@H](O)[C@H](O)[C@H]1O

>  <VALUE UNITS>
h

>  <MRT last>
3.32

$$$$

Query molecule follows.
Give the measured MRT last of COc1cc2c(cc1OC)[C@@H]1Cc3ccc(OC)c(OC)c3CN1CC2 [Tetrahydropalmatine, tetrahydropalmatine] .
8.2

---

half-life: recorded values
- TEST DETAILS: Pharmacokinetic study in rats after single oral administration of GJK (UPLC-MS/MS of plasma)
- Assay type: in vivo, Sprague–Dawley rats
- CONDITION SUMMARY: Sprague-Dawley; rat plasma, single oral GJK 24 g/kg, n = 6, mean ± S.D., non-compartmental; read-out: T1/2z (terminal elimination half-life)
- Protocol: Chromatographic analyses were performed using an Agilent 1290 series UPLC system (Agilent Technologies, Santa Clara, CA, USA) equipped with a binary pump, an online degasser, an auto plate sampler, and a thermostatically controlled column compartment. The determination was carried out at 30 °C on a Waters Acquity UPLC C18 column (100 mm × 2.1 mm, […], Waters, Milford, MA, USA). […]

>  <MOLECULE>
COc1ccc(-c2coc3cc(O[C@@H]4O[C@H](CO)[C@@H](O)[C@H](O)[C@H]4O)ccc3c2=O)cc1O [Calycosin-7-glucoside, calycosin-7-glucoside]

>  <half-life>
4.43 h

$$$$

Give the measured half-life of COc1ccc(-c2coc3cc(O)ccc3c2=O)cc1 [Formononetin, formononetin] .
15.8 h

---

- TEST DETAILS: Stability of the analytes in rat plasma under different storage conditions (QC samples)
- Type: in vitro ADME
- CONDITION SUMMARY: rat, plasma, rat plasma, at −70 °C for 15 days, low QC concentration, n = 3
remaining at 360 h: recorded values
State the answer as a number, implicitly in %.

Field: example entries. Status: answers known.
>  <COMPOUND>
O=C(/C=C/c1ccc(O)cc1)c1ccc(O)cc1O [Isoliquiritigenin, isoliquiritigenin]

>  <VAL>
103

$$$$
>  <COMPOUND>
COCC12CCC(OC)C34C5CC6(O)C(OC)C(O)C(O)(C5C6OC(=O)c5ccccc5)C(C(OC)C13)C4N(C)C2 (centres unmarked) [Benzoylhypaconine, benzoylhypaconine]

>  <VAL>
108

$$$$
>  <COMPOUND>
COc1ccc(-c2coc3cc(O[C@@H]4O[C@H](CO)[C@@H](O)[C@H](O)[C@H]4O)ccc3c2=O)cc1O [Calycosin-7-glucoside, calycosin-7-glucoside]

>  <VAL>
108

$$$$
>  <COMPOUND>
C[C@@]12C[C@@]3(O)O[C@@H](O1)[C@]1(COC(=O)c4ccccc4)[C@H]3C[C@@]12O[C@@H]1O[C@H](CO)[C@@H](O)[C@H](O)[C@H]1O [Paeoniflorin, paeoniflorin]

>  <VAL>
98.6

$$$$

Query compound follows.
Give the measured remaining at 360 h of COc1cc2c(cc1OC)[C@@H]1Cc3ccc(OC)c(OC)c3CN1CC2 [Tetrahydropalmatine, tetrahydropalmatine] .
104
